subject of test: DNA topoisomerase 2-alpha (Rattus norvegicus)
assay explanation: Inhibition of rat brain topoisomerase 2 assessed as relaxation of supercoiled pBR322 DNA
Activity calls are given as the source filed them. The calls are words filed in the database; no cut-off is given here.

- chem smiles: "COc1ccc2nc(-c3ccc(N[C@@H]4c5cc6c(cc5[C@@H](c5cc(OC)c(O)c(OC)c5)[C@H]5C(=O)OC[C@@H]54)OCO6)cc3)sc2c1"
  inhibition: "Active"
- chem smiles: "COc1cc([C@@H]2c3cc4c(cc3[C@@H](Nc3ccc(-c5nc6ccccc6s5)cc3)[C@H]3COC(=O)[C@H]23)OCO4)cc(OC)c1O"
  inhibition: "Active"
- chem smiles: "COc1cc([C@@H]2c3cc4c(cc3[C@@H](Nc3ccc(-c5nc6ccccc6s5)cc3)[C@H]3COC(=O)[C@H]23)OCO4)cc(OC)c1OC"
  inhibition: "Active"
- chem smiles: "COc1cc([C@@H]2c3cc4c(cc3[C@@H](Nc3ccc(-c5nc6ccccc6s5)cc3Br)[C@H]3COC(=O)[C@H]23)OCO4)cc(OC)c1O"
  inhibition: "Active"

----------
assay explanation: Cytotoxicity against human DWD assessed as inhibition of cell growth
Assay type: functional
Structures can show the parent of a compound that is named as a salt.
reported property: IC50 (µM)
Only the number, expressed in µM, is required.

- molecule: "COc1ccc2nc(-c3ccc(N[C@@H]4c5cc6c(cc5[C@@H](c5cc(OC)c(OC)c(OC)c5)[C@H]5C(=O)OC[C@@H]54)OCO6)cc3)sc2c1"
  unit tag: "µM"
  IC50: 5.2
- molecule: "COc1cc([C@@H]2c3cc4c(cc3[C@@H](Nc3ccc(-c5nc6ccccc6s5)cc3)[C@H]3COC(=O)[C@H]23)OCO4)cc(OC)c1OC"
  unit tag: "µM"
  IC50: 22
- molecule: "COc1cc([C@@H]2c3cc4c(cc3[C@@H](Nc3ccc(-c5nc6ccccc6s5)c(Cl)c3)[C@H]3COC(=O)[C@H]23)OCO4)cc(OC)c1O"
  unit tag: "µM"
  IC50: 6.5

Using the record for COc1cccc2c1C(=O)c1c(O)c3c(c(O)c1C2=O)C[C@@](O)(C(=O)CO)C[C@@H]3O[C@H]1C[C@H](N)[C@H](O)[C@H](C)O1 [DOXORUBICIN HYDROCHLORIDE] , report its IC50.
2.8

Similarly, COc1cc([C@@H]2c3cc4c(cc3[C@@H](Nc3ccc(-c5nc6ccccc6s5)cc3)[C@H]3COC(=O)[C@H]23)OCO4)cc(OC)c1O ?
2.3

Similarly, COc1cc([C@@H]2c3cc4c(cc3[C@@H](Nc3ccc(-c5nc6c(Cl)cccc6s5)cc3)[C@H]3COC(=O)[C@H]23)OCO4)cc(OC)c1OC ?
7.3

Similarly, COc1cc([C@@H]2c3cc4c(cc3[C@@H](Nc3ccc(-c5nc6c(Cl)cccc6s5)cc3)[C@H]3COC(=O)[C@H]23)OCO4)cc(OC)c1O ?
9.1

Similarly, COc1cc([C@@H]2c3cc4c(cc3[C@H](O)[C@H]3COC(=O)[C@H]23)OCO4)cc(OC)c1OC [PODOFILOX] ?
6.1
